All figures here come from patent US12030877B2.

Molecular target: mPGES-1 (Homo sapiens, UniProt O14684)
Sequence (O14684 whole entry): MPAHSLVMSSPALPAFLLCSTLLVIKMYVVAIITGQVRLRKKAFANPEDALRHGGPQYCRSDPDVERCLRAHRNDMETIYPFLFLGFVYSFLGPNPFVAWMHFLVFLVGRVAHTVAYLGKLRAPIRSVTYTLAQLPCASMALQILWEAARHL
Assay: mPGES-1 enzyme activity assay (PGE2 enzyme immunoassay), human enzyme
Format: biochemical
Set-up: made in house; host or cells: FreeStyle 293-F cells, crude microsomal preparation
Settings: recombinant microsomal enzyme; means ± SD, triplicate; read-out: IC50 against mPGES-1, Human enzyme
parameter: pIC50
// pIC50: -log10(molar conc.)

{"columns": ["compound", "experimental_value"],
 "data": [
  ["CCCCOc1ccc(-c2nn(-c3ccccc3)cc2C=C2C(=O)NC(=S)NC2=O)cc1 [VI-11]", 7.04],
  ["CCOc1ccc(-c2nn(-c3ccc(Cl)cc3)cc2/C=C2\\SC(=O)N(CC(=O)O)C2=O)cc1 [VII-10]", 7.39],
  ["CCOc1ccc(-c2nn(-c3ccc(Cl)cc3)cc2C=C2C(=O)NC(=O)NC2=O)cc1 [VI-01]", 6.58]
]}

stdin: Quick one: pIC50 of CCCCCCCCOc1ccc(-c2nn(-c3ccc(Cl)cc3)cc2C=C2C(=O)NC(=O)NC2=O)cc1 [VI-06] ?
stdout: 6.44

stdin: Can you check O=C(CCCN1C(=O)C=CC1=O)Nc1ccc2c(c1)Cc1ccccc1-2 [III-01] next?
stdout: 5.72

stdin: Can you check CCCCCN1C(=O)/C(=C2\SC(=O)N(CC(=O)O)C2=O)c2ccccc21 [II-12] next?
stdout: 5.78

stdin: Can you check O=C1S/C(=C\c2ccc(Oc3cc([N+](=O)[O-])c([N+](=O)[O-])cc3F)c([N+](=O)[O-])c2)C(=O)N1CCCCC1CCCCC1 [IV-01] next?
stdout: 6.53

stdin: Can you check O=C(O)CN1C(=O)S/C(=C2\C(=O)N(CCCC3CCCCC3)c3ccccc32)C1=O [II-08] next?
stdout: 6.60

stdin: Can you check CCCCCCCCCCOc1ccc(-c2nn(-c3ccccc3)cc2/C=C(/C#N)C(=O)O)cc1 [VII-18] next?
stdout: 6.71

stdin: Can you check CCCCCCCCOc1ccc(-c2nn(-c3ccc(Cl)cc3)cc2C=C2C(=O)NC(=S)NC2=O)cc1 [VI-15] next?
stdout: 7.04

stdin: Can you check O=C(O)CN1C(=O)/C(=C2\SC(=S)NC2=O)c2ccccc21 [II-30] next?
stdout: 6.68

stdin: Can you check CCCCCCOc1ccc(-c2nn(-c3ccc(Cl)cc3)cc2/C=C2\SC(=S)NC2=O)cc1 [VII-09] next?
stdout: 5.76

stdin: Can you check CCCCOc1ccc(-c2nn(-c3ccccc3)cc2C=C2C(=O)NC(=O)NC2=O)cc1 [VI-02] next?
stdout: 6.67

stdin: Can you check CCCCCCOc1ccc(/C=C(\C#N)C(=O)OCC)cc1[N+](=O)[O-] [Compound V-01] next?
stdout: 5.06

stdin: Can you check O=C(O)CN1C(=O)S/C(=C2\C(=O)N(CCC3CCCCC3)c3ccc(-c4ccccc4)cc32)C1=O [II-24] next?
stdout: 7.49

stdin: Can you check O=C1NC(=O)/C(=C/c2cn(-c3ccccc3)nc2-c2ccccc2)S1 [VII-07] next?
stdout: 5.31

stdin: Can you check CCCCCCCCCCN1C(=O)/C(=C2\SC(=O)N(CC(=O)O)C2=O)c2ccccc21 [II-17] next?
stdout: 6.66
